Test system: RET;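 further: KINOMEscan kinase panel screen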
setup_conditions: concentration: 1 μM, replicates: in singlicate; n = 1
Label not satisfied if %Inh falls below 40%; label satisfied in every other case.

Query block: Check if %Inh >= 40% (inclusive). Item: CN(c1ccc(NC(=O)Nc2cccc(Cl)c2)cc1)c1ccnc(N)n1.Cl [GW830707]
Result block: satisfied

Query block: Check if %Inh >= 40% (inclusive). Item: Cl.N#CCc1ccc(Nc2nccc(Nc3ccc(Oc4ccccc4)cc3)n2)cc1 [GW639905]
Result block: not satisfied

Query block: Check if %Inh >= 40% (inclusive). Item: COc1cccc(-c2nc(-c3ccccc3)[nH]c2-c2ccncc2)c1 [SB-610250]
Result block: not satisfied

Query block: Check if %Inh >= 40% (inclusive). Item: Cl.Cl.NCC(NC(=O)c1cc(-c2cccnc2)c(-c2ccnc3[nH]ccc23)s1)c1ccccc1 (centres unmarked) [GSK1323434]
Result block: not satisfied

Query block: Check if %Inh >= 40% (inclusive). Item: `CS(=O)(=O)c1cccc(CNc2nc(Nc3ccc4c(c3)CCC(=O)N4)ncc2C(F)(F)F)c1`
Result block: satisfied

Query block: Check if %Inh >= 40% (inclusive). Item: COc1cc(Nc2nccc(N3CCC(NC(=O)Nc4ccc5c(c4)OCO5)C3)n2)cc(OC)c1OC (centres unmarked) [GSK1379766]
Result block: not satisfied

Query block: Check if %Inh >= 40% (inclusive). Item: Cc1cc(-c2ccnc(Nc3cccc(C#N)c3)n2)cc(C)c1O [GSK1440913]
Result block: not satisfied

Query block: Check if %Inh >= 40% (inclusive). Item: CCn1cnc2c(NCc3ccccc3)ncnc21 [SKF-96418]
Result block: not satisfied

Query block: Check if %Inh >= 40% (inclusive). Item: CC(C)NCC(Cc1ccccc1)NC(=O)c1cc(Br)c(-c2ccnc3[nH]ccc23)s1.Cl.Cl (centres unmarked) [GSK1383281]
Result block: satisfied

Query block: Check if %Inh >= 40% (inclusive). Item: `CC(C)(C)c1ccc(C(=O)Nc2cn3cc(-n4ccnc4)ccc3n2)cc1`
Result block: not satisfied

Query block: Check if %Inh >= 40% (inclusive). Item: CN(c1ccc2c(c1)nc(NCc1ccccc1)n2C)c1ccnc(Nc2ccc(CS(C)(=O)=O)cc2)n1.Cl [GW811603]
Result block: satisfied

Query block: Check if %Inh >= 40% (inclusive). Item: Nc1ncc(-c2cn[nH]c2)c2scc(-c3ccc4c(c3)CCN4C(=O)Cc3ccccc3)c12 [GSK2593067]
Result block: not satisfied

Query block: Check if %Inh >= 40% (inclusive). Item: CCOc1nccc(-c2c(-c3ccc(F)cc3)ncn2C2CCNCC2)n1 [SB-249175]
Result block: not satisfied

Query block: Check if %Inh >= 40% (inclusive). Item: CC(C)c1nc(-c2cccc(NS(=O)(=O)c3c(F)cccc3F)c2)c(-c2ccnc(Nc3ccc(N4CCOCC4)nc3)n2)s1.Cl [GSK1723980]
Result block: satisfied

Query block: Check if %Inh >= 40% (inclusive). Item: Cc1ccc(Nc2ccnc(Nc3ccc(C)c(F)c3)n2)cc1O.Cl [GW582868]
Result block: satisfied

Query block: Check if %Inh >= 40% (inclusive). Item: COc1ccc(C2=C(Nc3cccc(O)c3)C(=O)NC2=O)cc1 [SB-390766]
Result block: not satisfied

Query block: Check if %Inh >= 40% (inclusive). Item: CN(c1ccc(NC(=O)N2CCN(CCCN3CCOCC3)CC2)cc1)c1ccnc(Nc2ccc(CS(C)(=O)=O)cc2)n1.Cl [GW830899]
Result block: not satisfied

The origin of these recorded values is paper PMC5540273.
